testSystem: α3(S230I)β2γ2 GABAA receptor (Homo sapiens, UniProt P18507+P34903+P47870, S258I)
Construct: expressed in transfected cells; host or cells: HEK293T
Sequence (P34903 29-492 S258I): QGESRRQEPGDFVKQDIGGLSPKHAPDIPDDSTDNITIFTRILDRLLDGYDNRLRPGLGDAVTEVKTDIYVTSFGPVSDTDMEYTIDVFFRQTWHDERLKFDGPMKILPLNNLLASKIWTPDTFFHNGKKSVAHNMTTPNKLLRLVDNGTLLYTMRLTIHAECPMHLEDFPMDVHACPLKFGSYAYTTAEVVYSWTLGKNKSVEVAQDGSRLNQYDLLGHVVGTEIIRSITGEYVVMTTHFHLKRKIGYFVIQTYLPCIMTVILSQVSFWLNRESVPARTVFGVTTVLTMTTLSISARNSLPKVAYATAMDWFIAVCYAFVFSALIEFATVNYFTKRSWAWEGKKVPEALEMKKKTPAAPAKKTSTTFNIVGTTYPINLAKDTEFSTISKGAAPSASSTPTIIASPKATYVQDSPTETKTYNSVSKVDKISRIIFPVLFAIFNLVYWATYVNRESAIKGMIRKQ
Sequence (P47870 25-512 limits assumed): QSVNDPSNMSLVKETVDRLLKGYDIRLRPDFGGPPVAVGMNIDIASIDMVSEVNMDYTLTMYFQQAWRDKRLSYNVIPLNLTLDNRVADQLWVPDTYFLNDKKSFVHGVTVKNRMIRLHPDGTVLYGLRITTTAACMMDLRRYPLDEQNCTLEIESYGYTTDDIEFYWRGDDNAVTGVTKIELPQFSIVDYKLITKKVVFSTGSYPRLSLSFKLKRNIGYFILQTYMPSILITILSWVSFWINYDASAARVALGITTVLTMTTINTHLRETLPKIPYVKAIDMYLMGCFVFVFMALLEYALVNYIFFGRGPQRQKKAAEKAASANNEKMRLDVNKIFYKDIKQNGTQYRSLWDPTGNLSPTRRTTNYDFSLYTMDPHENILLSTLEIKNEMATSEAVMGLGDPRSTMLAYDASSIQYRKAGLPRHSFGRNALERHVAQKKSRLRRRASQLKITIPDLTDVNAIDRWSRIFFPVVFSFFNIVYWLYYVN
Sequence (P18507 40-467 isoform P18507-1 limits assumed, stated change not applied): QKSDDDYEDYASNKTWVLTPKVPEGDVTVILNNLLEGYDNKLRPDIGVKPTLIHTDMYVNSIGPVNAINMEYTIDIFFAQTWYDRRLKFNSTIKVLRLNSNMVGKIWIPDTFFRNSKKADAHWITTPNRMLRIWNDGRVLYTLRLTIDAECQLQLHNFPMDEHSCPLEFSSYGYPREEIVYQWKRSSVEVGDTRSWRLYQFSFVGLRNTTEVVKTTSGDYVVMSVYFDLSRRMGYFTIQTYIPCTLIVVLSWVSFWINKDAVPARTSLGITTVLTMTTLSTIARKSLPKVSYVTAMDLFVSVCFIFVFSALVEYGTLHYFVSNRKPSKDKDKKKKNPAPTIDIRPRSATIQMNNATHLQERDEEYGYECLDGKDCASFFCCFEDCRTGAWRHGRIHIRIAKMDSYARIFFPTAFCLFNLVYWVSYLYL
assayComment: Midazolam potentiation of EC10 GABA currents, whole-cell patch clamp, HEK293T
Assay type: cell-based
experimentalParameters: EC50 (nM), α3(S230I); midazolam potentiation of EC10 GABA
readoutType: EC50 (nM)
Quick note: give the figure in nM, leave out the unit.

Task item: Which EC50 value belongs to Cc1ncc2n1-c1ccc(Cl)cc1C(c1ccccc1F)=NC2 [midazolam] ?
Reply: 73.6
